Assay: Nuclear factor erythroid 2-related factor 2/antioxidant responsive element (Nrf2/ARE) small molecule agonists: luciferase reporter gene qHTS assay in human keratinocytes (AID 1919969); also: nearly all actives have a fitted effect of over 35% in size
Details: KeratinoSens HaCaT ARE-luciferase, luminescence, 24 h; series mostly up to 92.4 µM
From the text: National Center for Advancing Translational Sciences [NCATS] Division of Preclinical Innovation [DPI] U.S. Environmental Protection Agency [EPA] National Institutes of Environmental Health Sciences [NIEHS] National Toxicology Program [NTP] […] Oxidative stress has been implicated in the pathogenesis of a variety of diseases ranging from cancer to neurodegeneration. […] The activation of the report gene under culture conditions can be detected by ONE-Glo Luciferase Assay System (Promega, Madison, WI). […]
Inconclusive results are not listed. Calls of active or inactive are those of the source. Calls follow the shape of the full dose curve.
Labels: active, inactive

1) [Cl][Sb]([Cl])[Cl]    active
2) C[N+]1(CCC(C(N)=O)(c2ccccc2)c2ccccc2)CCCCC1    inactive
3) [Cl][Hg][c]1ccccc1    active
4) C[C@H](N)[C@H](O)c1ccc(O)c(O)c1    inactive
5) CNC(=O)CSP(=O)(OC)OC    inactive
6) COP(=S)(OC)Oc1ccc(S(N)(=O)=O)cc1    inactive
7) COC(=O)C(C)Oc1ccc(Oc2ccc(Cl)cc2Cl)cc1 (stereo not drawn)    inactive
8) CC(C)CC(N(C)C)C1(c2ccc(Cl)cc2)CCC1 (stereo not drawn)    inactive
9) CNC(C)Cc1ccc2c(c1)OCO2 (stereo not drawn)    active
10) CCC[N+](CCC)(CCC)CCC    inactive
11) FC(F)OC(F)(F)C(F)Cl (stereo not drawn)    inactive
12) O=S(=O)(c1ccc(Cl)cc1)c1ccc(Cl)cc1    inactive
13) C#CC(C)(C)O    inactive
14) CCCSP(=O)(OCC)Oc1ccc(Br)cc1Cl (stereo not drawn)    inactive
15) CCC(=O)C(CCN(C)C)(c1ccccc1)c1ccccc1    inactive
16) CCSC(=O)N(CC)C1CCCCC1    inactive
17) CC(C)(C#N)C(C)(C)C#N    inactive
18) CCN[C@@H](C)Cc1cccc(C(F)(F)F)c1    inactive
19) C=CCC1=C(C)C(OC(=O)C2C(C=C(C)C)C2(C)C)CC1=O (stereo not drawn)    active
20) CSc1nc(N=[N+]=[N-])nc(NC(C)C)n1    inactive
21) C=CCC1=C(C)[C@@H](OC(=O)[C@@H]2[C@@H](C=C(C)C)C2(C)C)CC1=O    active
22) CS(=O)(=O)c1ccc(C(=O)C2C(=O)CCCC2=O)c(Cl)c1COCC(F)(F)F    inactive
23) CC(=O)C(Cl)(Cl)Cl    active
